Taken from paper PMC5818879.

assay: In vivo oral pharmacokinetic study, plasma HPLC; set-up: species or system albino Wistar rats; conditions: albino Wistar, rat, po, 100 mg/kg
Readout: MRT (h)
Express it in h; write the number only.

Given the entry C=C(C)[C@@H]1CC[C@]2(C(=O)O)CC[C@]3(C)[C@H](CC[C@@H]4[C@@]5(C)CC[C@H](O)C(C)(C)[C@@H]5CC[C@]43C)[C@@H]12 [B, Betulinic acid] , report its measured MRT.
12.9

---

assay: In vivo oral pharmacokinetic study, plasma HPLC; set-up: species or system albino Wistar rats; conditions: albino Wistar, rat, po, 100 mg/kg
Readout: half-life (min)
Give the value in min but do not write min after it.

State the recorded half-life for this entry: C=C(C)[C@@H]1CC[C@]2(C(=O)O)CC[C@]3(C)[C@H](CC[C@@H]4[C@@]5(C)CC[C@H](O)C(C)(C)[C@@H]5CC[C@]43C)[C@@H]12 [B, Betulinic acid]
644

---

test: In vivo oral pharmacokinetic study, plasma HPLC; set-up: species or system albino Wistar rats; details: albino Wistar, rat, po, 100 mg/kg
Readout: AUC (µg·h/mL)
Write the value in µg·h/mL as a bare number.

Which AUC reading was recorded for the molecule C=C(C)[C@@H]1CC[C@]2(C(=O)O)CC[C@]3(C)[C@H](CC[C@@H]4[C@@]5(C)CC[C@H](O)C(C)(C)[C@@H]5CC[C@]43C)[C@@H]12 ?
134
